# Measured On: human MCH receptor (Homo sapiens, UniProt Q99705)
# Construct: expressed in transfected cells
# Sequence (Q99705 whole entry): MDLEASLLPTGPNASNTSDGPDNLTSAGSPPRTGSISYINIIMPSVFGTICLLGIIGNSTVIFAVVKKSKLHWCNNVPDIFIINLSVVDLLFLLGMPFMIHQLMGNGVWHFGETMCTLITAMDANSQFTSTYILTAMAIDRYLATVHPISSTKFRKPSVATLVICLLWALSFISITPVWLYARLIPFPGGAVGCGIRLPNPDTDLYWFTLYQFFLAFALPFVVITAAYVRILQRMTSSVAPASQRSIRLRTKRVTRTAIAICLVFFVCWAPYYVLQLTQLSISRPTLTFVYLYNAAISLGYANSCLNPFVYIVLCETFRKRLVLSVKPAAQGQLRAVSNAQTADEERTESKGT
# Procedure Details: hMCH FLIPR calcium mobilization assay
# Type: cell-based
# Assay Context: Ki in the hMCH FLIPR assay, 100 nM or less list
pKi: −log10 of the molar value.

{"Compound": "Cc1cccc(C)c1-n1nnnc1[C@H](c1cccc(O)c1)N1CCN(C/C=C/c2ccccc2)CC1 (racemic)", "Measured On": "human MCH receptor (Homo sapiens, UniProt Q99705)", "pKi": "≥ 7.00"}

* * *

Each entry below lists one item and its recorded Ki value.
# Measured On: rat MCH1 receptor (Rattus norvegicus)
# Sequence (P97639 whole entry): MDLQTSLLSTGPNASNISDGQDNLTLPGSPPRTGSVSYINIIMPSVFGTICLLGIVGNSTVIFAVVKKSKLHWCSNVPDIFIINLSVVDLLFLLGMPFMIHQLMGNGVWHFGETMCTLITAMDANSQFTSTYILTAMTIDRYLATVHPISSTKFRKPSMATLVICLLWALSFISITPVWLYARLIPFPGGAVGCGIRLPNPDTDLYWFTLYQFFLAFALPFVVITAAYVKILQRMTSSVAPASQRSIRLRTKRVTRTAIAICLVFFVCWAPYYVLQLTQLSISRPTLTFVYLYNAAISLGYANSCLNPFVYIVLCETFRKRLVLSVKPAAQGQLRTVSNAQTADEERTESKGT
# Procedure Details: rMCH FLIPR calcium mobilization assay (CHOK1-Gqi cells)
# Format: cell-based
# Design: expressed in transfected cells; host or cells: CHOK1-Gqi
# Assay Context: CHOK1-Gqi cells, rat MCH1 receptor; 100 nM or less list; read-out: Ki in the rMCH FLIPR assay
# Experimental: Pharmacological analyses were conducted using either a HT-PS100 device (Axiom Biotechnologies, San Diego, Calif.), which provides high-resolution dose-response fluorometric measurements of [Ca^++]i mobilization, or using a FLIPR® device (Molecular Devices, Sunnyvale, Calif.). […] Receptor-stimulated intracellular calcium responses were detected using FLIPR® by monitoring increases in the Fura-2 fluorescence response. […]

{"Compound": "Cc1cccc(C)c1-n1nnnc1[C@H](c1cccc(C(F)(F)F)c1)N1CCN(C/C=C/c2ccccc2)CC1 (racemic)", "Ki": "≤ 100 nM"}
{"Compound": "Cc1cccc(C)c1-n1nnnc1C(c1ccc(-c2ccccc2)cc1)N1CCN(C/C=C/c2ccccc2)CC1 (centres unmarked)", "Ki": "≤ 100 nM"}
